meta.source: patent US20100184701A1

- Assay system: T1, rat angiotensin 2 type 1 receptor (rat, UniProt P25095 1-359)
- T1 sequence (looked up): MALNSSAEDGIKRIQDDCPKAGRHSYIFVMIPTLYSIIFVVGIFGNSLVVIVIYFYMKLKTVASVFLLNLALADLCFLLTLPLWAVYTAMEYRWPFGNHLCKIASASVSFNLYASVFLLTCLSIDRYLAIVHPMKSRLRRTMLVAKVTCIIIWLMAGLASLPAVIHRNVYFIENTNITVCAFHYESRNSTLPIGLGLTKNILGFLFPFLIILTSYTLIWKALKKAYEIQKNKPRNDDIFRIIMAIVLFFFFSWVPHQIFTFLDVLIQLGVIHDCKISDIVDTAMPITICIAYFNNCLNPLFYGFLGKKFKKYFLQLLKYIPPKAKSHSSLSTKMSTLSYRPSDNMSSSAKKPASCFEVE
- Protocol description: cell-based or functional assay
Non-standard residues stand in square brackets, D forms with d. No end group written: not given here. Sar = CNCC(=O)O
Endpoint label: b-arrestin2 EC50
Remember to follow the number with its unit.

Answered examples (6):
{"Binder": "RVYIHPRVYIHPRVYIHP (cyclic, as printed: Cyclo(...)) [SEQ ID NO: 36]", "b-arrestin2 EC50": "1900 nM"}
{"Binder": "[Sar]RVYFHP-NH2 (N-terminus assumed; SMILES CNCC(=O)N[C@@H](CCCNC(=N)N)C(=O)N[C@H](C(=O)N[C@@H](Cc1ccc(O)cc1)C(=O)N[C@@H](Cc1ccccc1)C(=O)N[C@@H](Cc1c[nH]cn1)C(=O)N1CCC[C@H]1C(N)=O)C(C)C) [SEQ ID NO: 41]", "b-arrestin2 EC50": "660 nM"}
{"Binder": "XRVYIHP (Sar (sarcosine) at 1; D-Pro at 7; C-terminal amide (NH2)) [SEQ ID NO: 51]", "b-arrestin2 EC50": "110 nM"}
{"Binder": "XRVYYHP (Sar (sarcosine) at 1) [SEQ ID NO: 52]", "b-arrestin2 EC50": "440 nM"}
{"Binder": "[Sar]KVYIHP[dA]-OH (N-terminus assumed; SMILES CC[C@H](C)[C@H](NC(=O)[C@H](Cc1ccc(O)cc1)NC(=O)[C@@H](NC(=O)[C@H](CCCCN)NC(=O)CNC)C(C)C)C(=O)N[C@@H](Cc1c[nH]cn1)C(=O)N1CCC[C@H]1C(=O)N[C@H](C)C(=O)O) [SEQ ID NO: 49]", "b-arrestin2 EC50": "630 nM"}
{"Binder": "DRVYYHP (D-Asp at 1; C-terminal amide (NH2)) [SEQ ID NO: 58]", "b-arrestin2 EC50": "260 nM"}

Given the binder ARVYIHPA (NMAla (N-methyl-L-alanine) at 1; D-Ala at 8) [SEQ ID NO: 46] , what is its reported b-arrestin2 EC50?
63 nM

# repeat for DRVYYHP (N-Me-Asp (N-methyl-L-aspartic acid) at 1; C-terminal amide (NH2)) [SEQ ID NO: 61]
2100 nM

Can you handle [Sar]RVYKHP-NH2 (N-terminus assumed; SMILES CNCC(=O)N[C@@H](CCCNC(=N)N)C(=O)N[C@H](C(=O)N[C@@H](Cc1ccc(O)cc1)C(=O)N[C@@H](CCCCN)C(=O)N[C@@H](Cc1c[nH]cn1)C(=O)N1CCC[C@H]1C(N)=O)C(C)C) [SEQ ID NO: 43] next?
910 nM

Cool, now ERVYYHP (D-Glu at 1; C-terminal amide (NH2)) [SEQ ID NO: 60]
180 nM

Now give it for FVYIHPFVYIHPFVYIHP (cyclic, as printed: Cyclo(...)) [SEQ ID NO: 37] too.
1900 nM

Let us now turn to ARVYVHPA (NMAla (N-methyl-L-alanine) at 1) [SEQ ID NO: 33]
31 nM

Quick one: [Sar]RVYHHP-NH2 (N-terminus assumed; SMILES CNCC(=O)N[C@@H](CCCNC(=N)N)C(=O)N[C@H](C(=O)N[C@@H](Cc1ccc(O)cc1)C(=O)N[C@@H](Cc1c[nH]cn1)C(=O)N[C@@H](Cc1c[nH]cn1)C(=O)N1CCC[C@H]1C(N)=O)C(C)C) [SEQ ID NO: 42]
270 nM
